- TARGET: Env of HIV-1 strain R1166.c1 (HIV-1)
- ASSAY SUMMARY: cell-based or functional assay
# neutralization IC50 listing for each entry below
Write it as a number; the unit µg/mL goes unstated.

BINDER	neutralization IC50 (µg/mL)
γ22κ5 (antibody, V domains shown) VH: QIHLVQSGTEVKKPGSSVTVSCKAYGVNTFGLYAVNWVRQAPGQSLEYIGQIWRWKSSASHHFRGRVLISAVDLTGPSPPISSLEIKNLTSDDTAVYFCTTTSTYDKWSGLHHDGVMAFSSWGQGTLISVSA VL: DIQMTQSPSTLSASTGDTVRISCRASQSITGNWVAWYQQRPGKAPRLLIYRGAALLGGVPSRFRGSAAGTDFTLTIGNLQAEDFGTFYCQQYDTYPGTFGQGTKVEVKR	2.4

Report neutralization IC50 for γ59κ18 (antibody, V domains shown) VH: QIHLVQSGTEVKKPGSSVTVSCKAYGVNTFGLYAVNWVRQAPGQGLEYIGQIWRWKSSASHHFRGRVLISAVDLTGSSPPISSLEIKNVTSDDTAVYFCTTTSTYDEWSDLHHDGVMAFSSWGQGTLISVSA VL: DIQMTQSPSTLSASVGDTVRISCRASQSITGGWLAWYHQRPGKAPRLLIYRGSRLLGGVPSRFSGSAAGADFTLTIANLQAEDFGTFYCQQYDTYPGTFGQGTKVEVKR please.
11.7

Origin of the recorded values: patent US20180171001A1
